B1: DLC1 (parent)
chain: NDDSADYQHFLQDCVDGLFKEVKE

# Variants of: B1
# Experimental Details: protein stability index of a GFP-peptide fusion (GPS, HEK-293T) (PSI 1-6); higher = more stable;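 note: lentivirally expressed fusions sorted by FACS into six bins by GFP to DsRed ratio, PSI derived from sequencing read proportions per bin multiplied by bin number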
# Measurement Conditions: c terminus: a fixed tail appended
Would you mind telling me the reported protein stability index of each entry?
A bare number is all that is needed in reply.

Identify measured protein stability index corresponding to `F19L`
1.51

Determine from records and report protein stability index for `G17V`
2.16

Query protein stability index for `G17Y`
2.44

Answer with the recorded protein stability index of `S4C` only.
1.56

Read off the recorded protein stability index for `D13Q`
2.24

// fetch protein stability index given entry `D13C`
2.09

Give recorded protein stability index. `N1G`
1.9

Check the records and state protein stability index for `D16I`
1.49

Consider the variant `G17L` . State its measured protein stability index.
1.82

Look up and state reported protein stability index for `D16M`
2.81

# return recorded protein stability index for input `F10Q`
3.16

Write down protein stability index measured for item `H9N`
3.02

Give protein stability index for `H9T`
2.25

Note down protein stability index recorded for `E21V`
1.83

Give recorded protein stability index. `N1Y`
2.73

Recall and state the measured protein stability index for `F19S` .
5.67

Quote protein stability index reported for `Q8E` please.
2.62

Give a short answer stating reported protein stability index for `H9Y` .
2.24

Recall and state the measured protein stability index for `D2V` .
1.96

Tell me protein stability index reported for `K23R`
2.57

Return the recorded protein stability index value; entry: `Y7F`
2.05

Identify measured protein stability index associated with `D6R`
2.94

Name the recorded protein stability index of the item `A5M` in your answer.
2.15

Respond only with protein stability index recorded for `E21D`
4.67

Tell me protein stability index reported for `Y7H`
4.36

Consider the variant `D16W` . State its measured protein stability index.
1.8

Entry `Y7I` needs its protein stability index filled in; supply it.
1.75

Input `N1D` , output reported protein stability index.
1.72

Answer with reported protein stability index of `C14N`
5.34

Using known records, supply protein stability index for `L18P`
4.93

Identify the reported protein stability index for the following entry. `D3A`
2.77

Specify measured protein stability index for `L11M` .
3.29

Quick one: give measured protein stability index for `V15S`
4.71

Report protein stability index for `H9P`
3.71

Answer with the recorded protein stability index of `D16E` only.
2.08

Determine from records and report protein stability index for `F19W`
2.96

# return recorded protein stability index for input `C14P`
5.07

Consider the variant `Q8H` . State its measured protein stability index.
2.36

Look up and report measured protein stability index for this entry: `L18Q`
5.2

Given `D13L` , respond with its protein stability index.
1.76

Read the entry `C14V` and write its reported protein stability index.
3.21

Return protein stability index (reported value) for this variant: `D2G`
4.54

Give the measured protein stability index for `Q8M`
1.43

Quick one: give measured protein stability index for `L18E`
5.3

State its protein stability index for this variant: `Q12C`
3.91

Please report protein stability index for the following variant: `S4M`
2.05
